Taken from PubChem BioAssay.

# Target Or System: Torsin-1A-interacting protein 1 (Homo sapiens) (UniProt Q5JTV8)
# Sequence (Q5JTV8 whole entry, looked up): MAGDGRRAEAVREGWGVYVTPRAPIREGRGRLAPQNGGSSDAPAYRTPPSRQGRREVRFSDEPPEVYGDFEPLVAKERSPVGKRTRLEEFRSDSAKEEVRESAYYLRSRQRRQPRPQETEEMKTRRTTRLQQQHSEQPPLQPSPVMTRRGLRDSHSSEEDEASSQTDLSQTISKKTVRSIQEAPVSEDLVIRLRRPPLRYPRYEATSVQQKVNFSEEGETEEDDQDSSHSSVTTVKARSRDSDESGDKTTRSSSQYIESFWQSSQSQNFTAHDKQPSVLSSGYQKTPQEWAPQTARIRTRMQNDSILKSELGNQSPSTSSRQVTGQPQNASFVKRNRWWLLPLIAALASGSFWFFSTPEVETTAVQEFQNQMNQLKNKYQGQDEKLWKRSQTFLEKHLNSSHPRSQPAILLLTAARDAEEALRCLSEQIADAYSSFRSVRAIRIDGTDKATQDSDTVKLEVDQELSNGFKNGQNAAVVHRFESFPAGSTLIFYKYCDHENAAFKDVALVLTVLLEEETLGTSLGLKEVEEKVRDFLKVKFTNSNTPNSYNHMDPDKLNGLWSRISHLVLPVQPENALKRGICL
# Test Method Notes: compound microarray binding of lysate hLAP1 – cell lysate, small-molecule microarray, COS7 lysate, 635/667 nm fluorescence, primary screen (AID 1116)
# Particulars: 635 nm fluorescence, higher = more signal
Property Measured: composite z-score
Please reply with the number alone, leaving off any unit.

Entry COCCCNC(=O)[C@@]1(C)c2ccccc2C(=O)N(c2ccc(C)cn2)[C@H]1c1ccc(CO)cc1 , tested on Torsin-1A-interacting protein 1 (Homo sapiens) (UniProt Q5JTV8), has a reported composite z-score of 1.69

Entry CC(C)C[C@H]1NC(=O)[C@H](C)NC(=O)[C@@]23C(=O)N[C@@H](Cc4ccccc4)C2[C@H](C)[C@@]2(C)O[C@H]2C3/C=C/C/C=C\CNC1=O (stereo not given in full) , tested on Torsin-1A-interacting protein 1 (Homo sapiens) (UniProt Q5JTV8), has a reported composite z-score of 0.462

Entry C=C(/C(=C/C[C@@H](OC(C)=O)c1ccccc1OCCO)c1cnc2ccccc2c1)C(C)C , tested on Torsin-1A-interacting protein 1 (Homo sapiens) (UniProt Q5JTV8), has a reported composite z-score of 0.148

Entry COc1ccccc1CN1C(=O)c2ccccc2[C@](Cc2ccccc2I)(C(=O)NCCN2CCOCC2)[C@@H]1c1ccc(CO)cc1 , tested on Torsin-1A-interacting protein 1 (Homo sapiens) (UniProt Q5JTV8), has a reported composite z-score of 0.488

Entry CC(C)(C)OC(=O)CC[C@@]1(C(=O)N2CCCCC2)N=C(c2ccc(OCCCO)cc2)O[C@@H]1c1ccccc1N=[N+]=[N-] , tested on Torsin-1A-interacting protein 1 (Homo sapiens) (UniProt Q5JTV8), has a reported composite z-score of 1.27

Entry O=C1CSC(c2cccc([N+](=O)[O-])c2)N1c1ccccc1 (stereo not given) , tested on Torsin-1A-interacting protein 1 (Homo sapiens) (UniProt Q5JTV8), has a reported composite z-score of 0.273

Entry COCCOC(=O)N1C(=O)[C@@]2(c3cc(C#CC4(O)CCCCCC4)ccc31)[C@H](C(=O)N1CCc3cc(OC)c(OC)cc3C1)[C@H]1C(=O)O[C@H](c3ccccc3)[C@H](c3ccccc3)N1[C@@H]2c1ccccc1OCCO , tested on Torsin-1A-interacting protein 1 (Homo sapiens) (UniProt Q5JTV8), has a reported composite z-score of 0.447

Entry O=c1c2ccc(Br)cc2nc(-c2ccccc2)n1Cc1cccc(O)c1 , tested on Torsin-1A-interacting protein 1 (Homo sapiens) (UniProt Q5JTV8), has a reported composite z-score of 2.51

Entry O=C1OCC=C[C@H]2OC34C=CCN(CCN5CCOCC5)C(=O)[C@H]3N(CCCCCO)C(=O)[C@@H]4[C@@H]12 (stereo not given in full) , tested on Torsin-1A-interacting protein 1 (Homo sapiens) (UniProt Q5JTV8), has a reported composite z-score of -0.607

Entry C[N+](C)(C)CCCCCCNC(=O)[C@@H]1C[C@@H]2C(=O)NCC(=O)N2[C@@H]1c1ccc(O)cc1 , tested on Torsin-1A-interacting protein 1 (Homo sapiens) (UniProt Q5JTV8), has a reported composite z-score of 1.03

Entry CC(C)C(CO)N1C(=O)[C@@H]2[C@H]3C(=O)OCC=C[C@H]3OC23C=CCN(Cn2nnc4ccccc42)C(=O)[C@@H]13 (stereo not given in full) , tested on Torsin-1A-interacting protein 1 (Homo sapiens) (UniProt Q5JTV8), has a reported composite z-score of -0.273

Entry CCCNC(=O)[C@@H]1c2ccccc2C(=O)N(CC23CC4CC(CC(C4)C2)C3)[C@H]1c1ccc(CO)cc1 , tested on Torsin-1A-interacting protein 1 (Homo sapiens) (UniProt Q5JTV8), has a reported composite z-score of 0.986

Entry COC(=O)[C@@]1(Cc2ccc(OC)cc2)[C@H]2c3cc(C(=O)N4CCCC4)n(CCF)c3C[C@H]2CN1C(=O)c1ccccc1 , tested on Torsin-1A-interacting protein 1 (Homo sapiens) (UniProt Q5JTV8), has a reported composite z-score of 1.19

Entry CC(C)C[C@@H]1NC(=O)[C@@H]2C[C@H](C(=O)NCc3ccc(F)cc3)[C@H](c3ccc(O)cc3)N2C1=O , tested on Torsin-1A-interacting protein 1 (Homo sapiens) (UniProt Q5JTV8), has a reported composite z-score of 1.03

Entry COc1cc(C(O)C2C=CC3C(=O)NC(=O)C3N2Nc2ccc(Cl)cc2Cl)cc(OC)c1OC (stereo not given) , tested on Torsin-1A-interacting protein 1 (Homo sapiens) (UniProt Q5JTV8), has a reported composite z-score of 1.22
